# Test system: HS 578T breast
# assayDetails: NCI tumour cell line growth inhibition, 48 h; in the data active means GI50 below about 0.43 µM; inactive means the rest
Hi there, use one of these labels in your reply, thanks! class 1 (active), class 0 (inactive)

Some solved entries appear below for comparison.
compound	category
c1ccc([P+](CCC[P+](c2ccccc2)(c2ccccc2)c2ccccc2)(c2ccccc2)c2ccccc2)cc1	class 0
Cc1[nH]ccc2cc3nc4ccccc4c3cc12	class 0
COC(=O)C1=C2CO[C@@H]3C[C@H]4C(C)(C)CCC[C@]4(C)C(=CC1)[C@]23C	class 0
c1cc(-c2cnn3nc(N4CCOCC4)ccc23)nc(NC2CC2)n1	class 0
CC1CCC(C#N)(NOC2=NCCN2)CC1 (configuration not stated)	class 0

Record lookup: outcome of this test for O=C1C(Nc2cccc(O)c2)=C(Sc2ccc(Cl)cc2)C(=O)N1Cc1ccccc1 ?
class 0

Same read-out for CO[C@H]1/C=C/C[C@H](C)[C@@H](C)S(=O)(=O)NC(=O)c2ccc3c(c2)N(C[C@@H]2CC[C@H]21)C[C@@]1(CCCc2cc(Cl)ccc21)CO3 ?
class 0

---

# Test system: SF-539 CNS
# assayDetails: NCI tumour cell line growth inhibition, 48 h; in the data active = GI50 below about 0.43 µM; inactive = the rest
Hi there, use one of these labels in your reply, thanks! active, inactive

compound	category
ClC1=C(Cl)C(Cl)=C(Cl)C1=Cc1ccc(Cl)cc1Cl	active
COc1cccc2cc(N(C)c3nc(C)nc4ccsc34)ccc12	active
CSc1ccc(C(=O)/C=C/c2ccc(F)cc2)cc1	inactive
COc1ccc(Cn2cc3c(c2-c2ccccc2)CCc2cncnc2-3)cc1	inactive
Clc1ccc2c(NCCN3CCN(c4ccnc(N5CCCC5)n4)CC3)ccnc2c1	inactive
Cc1ccc(C(=O)Nc2ccccc2C(=O)N/N=C(\c2ccccc2)c2ccccn2)cc1	active
COc1ccc2nc(C3=CN(C4OC(CO)C(O)C(O)C4O)C4C=CC=CC34)sc2c1 (stereo not given)	inactive
Cc1cc(S(=O)(=O)Nc2nc3ccsc3c(=O)n2Cc2ccccc2)c(S)cc1Cl	inactive

Record lookup: outcome of this test for CC1(C)CC(O)CCCCCCOc2c(CN)cccc2NC(=O)c2nc(cnc2N)-c2ccc(cc2)S1(=O)=O (stereo not given) ?
active

Same read-out for CCN1CCN(c2nc(C)cc(N(CCCNc3ccnc4cc(Cl)ccc34)Cc3ccco3)n2)CC1 ?
inactive

---

Here, each record is paired with measured TGI data.
# Tested on: HS 578T breast
# assayDetails: NCI tumour cell line growth inhibition, 48 h

Sample records with TGI:
compound	TGI
CCOC(CN(C)C(=O)OCC(Cl)(Cl)Cl)OCC	> 100 µM
CCC(C)N1CN(c2ccccc2)C2(CCN(CCCC(=O)c3ccc(F)cc3)CC2)C1=O (stereo unspecified)	36.4 µM
COC(=O)C(Cc1ccccc1)NC(=O)C(CCCN=C(N)N)NC(=O)OCc1ccccc1 (stereo unspecified)	> 100 µM
C=C(C)C(=O)N1c2ccc(OC)cc2CC1C(=O)OCC (stereo unspecified)	> 100 µM
ClC1=C(Cl)C(Cl)=C(Cl)C1=Cc1ccc(Cl)cc1Cl	> 100 µM

Value lookup for TGI; key = C[C@@H]1CCC2[C@@H](C)[C@H](OC(=O)CCC(=O)NCCNC(=O)Cc3cc(=O)oc4cc(N(C)C)ccc34)O[C@@H]3O[C@]4(C)CC[C@@H]1C23OO4 (stereo partly specified)
> 33.1 µM

---

# Test system: M14 melanoma
# assayDetails: NCI tumour cell line growth inhibition, 48 h; in the data active = GI50 below about 0.43 µM; inactive = the rest
Hi there, use one of these labels in your reply, thanks! active, inactive

compound	experimentalSystem	category
CCCCCCCCCCC(CN(CC)CC)C(O)c1ccccc1 (stereo not drawn)	M14 melanoma	inactive

Record lookup: outcome of this test for CCNC(=O)CCCCC(=O)c1c(C)[nH]c(/C=C2\N=C(c3ccc[nH]3)C=C2OC)c1C ?
inactive

Same read-out for CCOC(=O)c1cn2ncnc(Oc3ccc(NC(=O)NCCN(CC)CC)c(Cl)c3)c2c1C ?
inactive

Same read-out for CCN1CCN(c2nc(C)cc(N(CCCNc3ccnc4cc(Cl)ccc34)Cc3ccco3)n2)CC1 ?
inactive

Same read-out for CN1CCN(c2ccc([N+](=O)[O-])c3no[n+]([O-])c23)CC1 ?
active

Same read-out for CC1(C)CC(O)CCCCCCOc2c(CN)cccc2NC(=O)c2nc(cnc2N)-c2ccc(cc2)S1(=O)=O (stereo not drawn) ?
active

Same read-out for CN(C)S(=O)(=O)c1cccc(-c2nc3sc4c(c3c(=O)[nH]2)CCCC4)c1 ?
inactive

Same read-out for COc1ccc(Cn2c3c(c4c(O)cccc42)C(=O)c2ccccc2-3)cc1 ?
inactive

Same read-out for C=C1C(=O)O[C@H]2[C@H]1CC/C(COC(=O)NCc1cccc(OC)c1)=C\CC[C@@]1(C)O[C@@H]21 ?
inactive

Same read-out for ClC1=C(Cl)C(Cl)=C(Cl)C1=Cc1ccc(Cl)cc1Cl ?
active

Same read-out for C=C(CN(CCN1CCOCC1)CC(=C)c1ccc(C(=O)Nc2ccccc2N)cc1)c1ccc(C(=O)Nc2ccccc2N)cc1 ?
inactive

Same read-out for O=C1/C(=C/c2ccc(C(F)(F)F)cc2)COc2ccc(O)cc21 ?
inactive

Same read-out for Clc1ccc2c(NCCN3CCN(c4ccnc(N5CCCC5)n4)CC3)ccnc2c1 ?
inactive

Each recorded value in this set is attributed to PubChem BioAssay (NCI).
